Where do the numbers come from? From ChEMBL document CHEMBL4699561.

# Test system: A549
# ASSAY_EXPLANATION: Cytotoxicity against human A549 cells assessed as reduction in cell viability by MTT assay
# Assay type: functional, cell-based
I'd appreciate it if you marked entries met when IC50 is lower than 20 µM and not met when it is not.

Below are worked cases with known answers.
SMILES_STRING | SYSTEM_TESTED | CLASS_ASSIGNMENT
C=C1C(=O)O[C@@H]2[C@@H](OC(=O)[C@@H](C)CC)[C@@](C)(O)C[C@H]3C[C@@H](C)[C@@](O)(C[C@@H]12)O3 | A549 | not met
C=C1C(=O)O[C@@H]2[C@@H](OC(=O)[C@H](C)CC)[C@@](C)(O)C[C@H]3C[C@@H](C)[C@@](O)(C[C@@H]12)O3 | A549 | not met
C=C1C(=O)O[C@@H]2[C@@H](OC(=O)[C@H](C)CC)[C@@](C)(O)CCC[C@@H](C)C(=O)C[C@@H]12 | A549 | not met
C=C1C(=O)O[C@@H]2[C@@H](OC(=O)[C@@H](C)CC)[C@@](C)(O)CCC[C@@H](C)C(=O)C[C@@H]12 | A549 | not met
C=C1C(=O)O[C@@H]2[C@@H](OC(=O)CC(C)C)[C@@](C)(O)CCC[C@@H](C)C(=O)C[C@@H]12 | A549 | met
C=C1C(=O)O[C@@H]2[C@@H](OC(=O)/C(C)=C\C)[C@@](C)(O)CCC[C@@H](C)C(=O)C[C@@H]12 | A549 | met

Exercise: Is IC50 of C=C1C(=O)O[C@@H]2[C@@H](OC(=O)C(C)C)[C@@](C)(O)C[C@H]3C[C@@H](C)[C@@](O)(C[C@@H]12)O3 strictly below 20 µM?
Solution: not met

Exercise: Likewise for C=C1C(=O)O[C@@H]2[C@@H](OC(=O)C(C)C)[C@@](C)(O)CCC[C@@H](C)C(=O)C[C@@H]12 ?
Solution: not met

Exercise: Quick one: C=C1C(=O)O[C@@H]2[C@@H](OC(=O)/C(C)=C\C)[C@@](C)(O)C[C@H]3C[C@@H](C)[C@@](O)(C[C@@H]12)O3
Solution: met

Exercise: Proceed to C=C1C(=O)O[C@@H]2[C@@H](OC(=O)CC(C)C)[C@@](C)(O)C[C@H]3C[C@@H](C)[C@@](O)(C[C@@H]12)O3
Solution: not met
